// reported P8_MyD88 Rank (after) for each item listed
Target: MyD88^TIR (Homo sapiens, UniProt Q99836)
Construct: MyD88 (residues 148–296); 6xHis; made in house; host or cells: E. coli BL21 (DE3)
Sequence (Q99836 148-296): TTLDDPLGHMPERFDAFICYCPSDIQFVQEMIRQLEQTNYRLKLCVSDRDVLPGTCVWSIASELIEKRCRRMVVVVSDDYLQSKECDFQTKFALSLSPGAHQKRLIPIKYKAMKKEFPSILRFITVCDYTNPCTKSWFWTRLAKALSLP
Assay: T‐Surf phage library (P8 and P3) selection against MyD88^TIR, four rounds, NGS read counts
Format: binding
Settings: P8 library, selection against MyD88, rank after grouping

[
  {
    "Entry sequence": "PQDQEWFYERMVSLIL",
    "P8_MyD88 Rank (after)": 517
  },
  {
    "Entry sequence": "PQEQVWFYERQVSLIV",
    "P8_MyD88 Rank (after)": 533
  },
  {
    "Entry sequence": "DPHDPQWFYERLVRLI",
    "P8_MyD88 Rank (after)": 495
  },
  {
    "Entry sequence": "DPPLLHGLYERLVILF",
    "P8_MyD88 Rank (after)": 485
  },
  {
    "Entry sequence": "NYASSSWALNELLEILK",
    "P8_MyD88 Rank (after)": 506
  },
  {
    "Entry sequence": "DIEYIHLFWDRLLYSL",
    "P8_MyD88 Rank (after)": 526
  },
  {
    "Entry sequence": "DPQDLAWFYASQSSQM",
    "P8_MyD88 Rank (after)": 500
  },
  {
    "Entry sequence": "NYASSTFALNELHYILRFI",
    "P8_MyD88 Rank (after)": 496
  },
  {
    "Entry sequence": "LGYHWMGWEYFVGIED",
    "P8_MyD88 Rank (after)": 560
  },
  {
    "Entry sequence": "DPQDLDWFYECPVSMF",
    "P8_MyD88 Rank (after)": 535
  },
  {
    "Entry sequence": "YLRADDSWFEEKLLFA",
    "P8_MyD88 Rank (after)": 574
  },
  {
    "Entry sequence": "IDDDHLTYLVRLLLSLL",
    "P8_MyD88 Rank (after)": 539
  },
  {
    "Entry sequence": "WSLDELLKILYAKETI",
    "P8_MyD88 Rank (after)": 508
  },
  {
    "Entry sequence": "LGYHWLNWESFVGIED",
    "P8_MyD88 Rank (after)": 547
  },
  {
    "Entry sequence": "WALDELLKFCMRMKP",
    "P8_MyD88 Rank (after)": 520
  },
  {
    "Entry sequence": "LGYHGIDWVYFGGIED",
    "P8_MyD88 Rank (after)": 565
  },
  {
    "Entry sequence": "WALDELLQILHAREL",
    "P8_MyD88 Rank (after)": 577
  },
  {
    "Entry sequence": "RNFVAYLFQALANKGI",
    "P8_MyD88 Rank (after)": 483
  },
  {
    "Entry sequence": "YAASMRWFGELAKIVG",
    "P8_MyD88 Rank (after)": 558
  }
]
